The measured values listed here are drawn from patent US12258327B2.

biological target: EGFR L858R/C797S (Homo sapiens, UniProt P00533, C797S/L858R); test: Biochemical EGFR kinase assay (Lance Ultra TR-FRET), double mutant L858R/C797S; conditions: Km ATP; read-out: IC50 L858R/C797S, Km ATP
Sequence (P00533 25-1210 C797S/L858R): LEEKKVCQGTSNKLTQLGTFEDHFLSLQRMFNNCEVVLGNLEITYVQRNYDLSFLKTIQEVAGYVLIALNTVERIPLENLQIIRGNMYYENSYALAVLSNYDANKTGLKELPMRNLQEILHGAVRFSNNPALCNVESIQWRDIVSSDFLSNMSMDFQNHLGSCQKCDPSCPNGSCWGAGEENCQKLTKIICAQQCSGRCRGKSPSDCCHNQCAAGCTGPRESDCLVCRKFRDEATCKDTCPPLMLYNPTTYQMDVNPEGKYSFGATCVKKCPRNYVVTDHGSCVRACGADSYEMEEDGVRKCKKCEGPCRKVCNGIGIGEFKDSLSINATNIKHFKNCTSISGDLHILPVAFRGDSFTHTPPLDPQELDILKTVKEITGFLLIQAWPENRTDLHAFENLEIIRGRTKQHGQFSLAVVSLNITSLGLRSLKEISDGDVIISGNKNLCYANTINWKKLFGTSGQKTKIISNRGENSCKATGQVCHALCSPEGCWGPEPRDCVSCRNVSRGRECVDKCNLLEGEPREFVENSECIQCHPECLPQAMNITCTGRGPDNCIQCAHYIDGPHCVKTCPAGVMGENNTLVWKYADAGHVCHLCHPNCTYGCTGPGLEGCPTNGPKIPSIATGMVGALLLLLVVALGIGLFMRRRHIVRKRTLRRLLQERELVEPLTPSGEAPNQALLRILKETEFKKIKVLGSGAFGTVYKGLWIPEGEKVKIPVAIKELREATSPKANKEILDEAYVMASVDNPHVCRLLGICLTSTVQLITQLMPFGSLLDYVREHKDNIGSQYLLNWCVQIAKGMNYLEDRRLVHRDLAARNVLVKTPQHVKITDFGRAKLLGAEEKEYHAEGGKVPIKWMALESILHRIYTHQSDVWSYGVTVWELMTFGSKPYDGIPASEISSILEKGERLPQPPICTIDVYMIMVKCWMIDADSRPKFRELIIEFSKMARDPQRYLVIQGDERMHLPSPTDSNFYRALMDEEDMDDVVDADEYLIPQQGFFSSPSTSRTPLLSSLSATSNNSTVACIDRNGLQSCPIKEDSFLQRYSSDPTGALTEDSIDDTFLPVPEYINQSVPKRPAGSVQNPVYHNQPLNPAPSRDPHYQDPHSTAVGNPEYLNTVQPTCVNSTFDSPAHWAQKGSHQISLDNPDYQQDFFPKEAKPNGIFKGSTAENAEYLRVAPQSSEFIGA
Entries annotated with measured log10 IC50
Quick note: numbers are log10 of IC50, with nM as the unit.

> print(dat)
                                   compound                             target.entity    quantity  measured.value
1  Cn1nc(-c2cnc(Nc3ccnc(-c4cnn(CC(F)F)c4)n3)cc2N[C@H]2CC[C@@](C)(O)CC2)cc1C(F)(F)F [Example 331]  EGFR L858R/C797S (Homo sapiens, UniProt P00533, C797S/L858R)  log10 IC50            0.83
2  OCC[C@H]1CC[C@@H](Nc2cc(Nc3ccnc(-c4cnn(CC(F)F)c4)n3)ncc2-c2ccn(CC(F)(F)F)n2)CC1 [Example 338]  EGFR L858R/C797S (Homo sapiens, UniProt P00533, C797S/L858R)  log10 IC50            0.59

INPUT: What value of log10 IC50 has been recorded for this entry: Cc1nn(CC(F)(F)F)cc1-c1nccc(Nc2cc(N[C@H]3CC[C@@H](CCO)CC3)c(-c3cc(C(F)(F)F)n(C)n3)cn2)n1 [Example 334]
OUTPUT: 1.23

INPUT: What value of log10 IC50 has been recorded for this entry: CC1(O)CCC(Nc2cc(Nc3ccnc(N4CCC(F)(F)C(O)C4)n3)ncc2-c2ccn(C(F)F)n2)CC1 (centres unmarked) [Example 350]
OUTPUT: 2.07

INPUT: What value of log10 IC50 has been recorded for this entry: Cn1nc(-c2nnc(Nc3ccnc(-c4cnn(S(=O)(=O)C5CC5)c4)n3)cc2N[C@H]2CC[C@@](C)(O)CC2)cc1C(F)(F)F [Example 373]
OUTPUT: 2.35

INPUT: What value of log10 IC50 has been recorded for this entry: O=S(=O)(C1CC1)n1cc(-c2ncc(F)c(Nc3cc(N[C@H]4CC[C@@H](CCO)CC4)c(-c4ccn(CC(F)F)n4)cn3)n2)cn1 [Example 336]
OUTPUT: 1.31

INPUT: What value of log10 IC50 has been recorded for this entry: C[C@]1(O)CC[C@@H](Nc2cc(Nc3ccnc(-c4cnn(CC(F)F)c4)n3)ncc2-c2ccn(CC(F)F)n2)CC1 [Example 343]
OUTPUT: -0.52

INPUT: What value of log10 IC50 has been recorded for this entry: Cc1nn(CC(F)(F)F)cc1-c1nccc(Nc2cc(N[C@H]3CC[C@@](C)(O)CC3)c(-c3ccn(CC(F)F)n3)cn2)n1 [Example 335]
OUTPUT: 0.66

INPUT: What value of log10 IC50 has been recorded for this entry: C[C@]1(O)CC[C@@H](Nc2cc(Nc3ccnc(-c4cnn(CC(F)(F)F)c4)n3)ncc2-c2ccn(CC(F)F)n2)CC1 [Example 344]
OUTPUT: -0.70

INPUT: What value of log10 IC50 has been recorded for this entry: CC1(O)CCC(Nc2cc(Nc3ccnc(N4CC(CO)C(C)(C)C4)n3)ncc2-c2ccn(C(F)F)n2)CC1 (centres unmarked) [Example 347]
OUTPUT: 1.68

INPUT: What value of log10 IC50 has been recorded for this entry: Cn1nc(-c2cnc(Nc3ccnc(-c4cnn(S(=O)(=O)C5CC5)c4)c3)nc2N[C@H]2CC[C@@H](F)CC2)cc1C(F)(F)F [Example 371]
OUTPUT: 1.96
